// Activity of mutant relative to wild-type Gaussia luciferase without the signal peptide lookup, one value per entry
test: Luminescence activity assay of purified Gaussia luciferase mutants on coelenterazine derivative ZS2; format: biochemical; parameters: key: ratio of mutant luminescence intensity to wild-type Gaussia luciferase; settings: Substrate ZS2 (Table 16)

These recorded examples may help you get a feel for the data.
molecule	experimentalResult
T167S S170D G174N Q175E K178N A182L: Gaussia luciferase mutant (protein, SIGNAL (1)..(17), Gaussia luciferase mutant) MGVKVLFALICIAVAEAKPTENNEDFNIVAVASNFATTDLDADRGKLPGKKLPLEVLKEMEANARKAGCTRGCLICLSHIKCTPKMKKFIPGRCHTYEGDKESAQGGIGEAIVDIPEIPGFKDLEPMEQFIAQVDLCVDCTTGCLKGLANVQCSDLLKKWLPQRCASFADKIQNEVDNIKGLGGD	0.890
N27D V29S V31L A32V S33G A36N T37D L40R: Gaussia luciferase mutant (protein, SIGNAL (1)..(17), Gaussia luciferase mutant) MGVKVLFALICIAVAEAKPTENNEDFDISALVGNFNDTDRDADRGKLPGKKLPLEVLKEMEANARKAGCTRGCLICLSHIKCTPKMKKFIPGRCHTYEGDKESAQGGIGEAIVDIPEIPGFKDLEPMEQFIAQVDLCVDCTTGCLKGLANVQCSDLLKKWLPQRCATFASKIQGQVDKIKGAGGD	0.146
F26D N27H V29K A30G A32G S33L T37L L40R: Gaussia luciferase mutant (protein, SIGNAL (1)..(17), Gaussia luciferase mutant) MGVKVLFALICIAVAEAKPTENNEDDHIKGVGLNFALTDRDADRGKLPGKKLPLEVLKEMEANARKAGCTRGCLICLSHIKCTPKMKKFIPGRCHTYEGDKESAQGGIGEAIVDIPEIPGFKDLEPMEQFIAQVDLCVDCTTGCLKGLANVQCSDLLKKWLPQRCATFASKIQGQVDKIKGAGGD	0.381
Q152R Q163S T167G S170T G174K K178S A182M G183A: Gaussia luciferase mutant (protein, SIGNAL (1)..(17), Gaussia luciferase mutant) MGVKVLFALICIAVAEAKPTENNEDFNIVAVASNFATTDLDADRGKLPGKKLPLEVLKEMEANARKAGCTRGCLICLSHIKCTPKMKKFIPGRCHTYEGDKESAQGGIGEAIVDIPEIPGFKDLEPMEQFIAQVDLCVDCTTGCLKGLANVRCSDLLKKWLPSRCAGFATKIQKQVDSIKGMAGD	2.367

Query molecule follows.
Entry K66N E102A S103T A104G E110G D123N L124M V138D K180: Gaussia luciferase mutant (protein) MGVKVLFALICIAVAEAKPTENNEDFNIVAVASNFATTDLDADRGKLPGKKLPLEVLKEMEANARNAGCTRGCLICLSHIKCTPKMKKFIPGRCHTYEGDKATGQGGIGGAIVDIPEIPGFKNMEPMEQFIAQVDLCDDCTTGCLKGLANVQCSDLLKKWLPQRCATFASKIQGQVDKIKGAGGD — recorded Activity of mutant relative to wild-type Gaussia luciferase without the signal peptide = 1.880
